The measurements presented in this section are drawn from ChEMBL document CHEMBL1155778.

Test: Cmax in rat at 10 mg/kg, po
Type: ADME, organism-based
Set-up: dose 10 mg/kg, route oral
Settings: in vivo
# Cmax per record follows

{"columns": ["compound", "Cmax"],
 "data": [
  ["CC(=O)c1cc(F)cc2c3c(n(Cc4ccc(Cl)cc4)c12)C(CC(=O)O)CC3 (configuration not stated)", "21 µM"]
]}

Fill blank: measured Cmax of the compound CS(=O)(=O)c1cc(F)cc2c3c(n(Cc4ccc(Cl)cc4)c12)C(CC(=O)O)CC3 (stereo not drawn) [DIASTEREOMER 2] is ____. 39 µM

----------
Target: Prostaglandin D2 receptor (Homo sapiens, UniProt Q13258)
Sequence (Q13258 whole entry): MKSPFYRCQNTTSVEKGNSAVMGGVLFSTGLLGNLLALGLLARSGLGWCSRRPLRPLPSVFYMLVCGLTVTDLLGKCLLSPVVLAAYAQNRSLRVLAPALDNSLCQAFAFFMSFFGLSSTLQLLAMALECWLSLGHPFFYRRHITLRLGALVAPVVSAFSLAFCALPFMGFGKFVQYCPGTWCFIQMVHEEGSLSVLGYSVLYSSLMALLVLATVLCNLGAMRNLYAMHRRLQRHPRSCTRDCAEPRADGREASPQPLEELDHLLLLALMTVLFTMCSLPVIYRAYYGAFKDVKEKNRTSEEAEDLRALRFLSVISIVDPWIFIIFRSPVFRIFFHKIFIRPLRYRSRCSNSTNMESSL
readout: Ki (nM)
Unit nM implied. Number only.

Fill blank: measured Ki of the molecule CC(=O)c1cc(F)cc2c3c(n(Cc4ccc(Cl)cc4)c12)C(CC(=O)O)CC3 (stereo unspecified) is ____. 1.1
